# procedure_details: recombinant UMI read abundance after kanamycin selection (control-corrected) (log10(CPM+1)); higher = more efficient recombination; extreme values may be limits of the assay; sequences stand for … in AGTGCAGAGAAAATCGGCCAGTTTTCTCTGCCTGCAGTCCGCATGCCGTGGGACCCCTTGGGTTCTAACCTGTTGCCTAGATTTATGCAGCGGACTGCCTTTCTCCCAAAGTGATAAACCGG…AGGTTGGTTTCACT; site = the 11-nt donor
parameter_measured: recombinant UMI read abundance (log10)

Answered cases to consult:
In [3]: df
Out[3]:
                           ordered_residues                      parameter_measured  observed
0  CTCGTTACATGGACCGGTTTTCCCGGTAATCCGTATTTGTG (site CTCGTTACTCA)  recombinant UMI read abundance (log10)     0.783
1  GTGCATGCATGGACCGGTTTTCCCGGTAATCCGTATTTGGA (site GTGCATGCTGC)  recombinant UMI read abundance (log10)         0
2  GACTATACATGGACCGGTTTTCCCGGTAATCCGTATTTGGG (site GACTATACTCC)  recombinant UMI read abundance (log10)     0.588

Which recombinant UMI read abundance (log10) reading was recorded for the sequence GCAGTCCCATGGACCGGTTTTCCCGGTAATCCGTATTTGCC (site GCAGTCCCTGG) ? 0

State the recorded recombinant UMI read abundance (log10) for this entry: AGAAAGTCATGGACCGGTTTTCCCGGTAATCCGTATTTGCT (site AGAAAGACTAG) 0

# get_value(readout='recombinant UMI read abundance (log10)', item= CGATACACATGGACCGGTTTTCCCGGTAATCCGTATTTGCT (site CGATACACTAG) ) 2.54

What value of recombinant UMI read abundance (log10) has been recorded for this entry: GATTGGCCATGGACCGGTTTTCCCGGTAATCCGTATTTGAC (site GATTGGACTGT) 0

Value lookup for recombinant UMI read abundance (log10); key = GGTTGTCCATGGACCGGTTTTCCCGGTAATCCGTATTTGGC (site GGTTGTCCTGC) 0

Please report the recorded recombinant UMI read abundance (log10) for CCTAACACATGGACCGGTTTTCCCGGTAATCCGTATTTGGC (site CCTAAAACTGC) . 0

----------
# procedure_details: recombinant barcode read abundance after kanamycin selection (control-corrected) (log10(CPM+1)); higher = more efficient recombination; sequences stand for … in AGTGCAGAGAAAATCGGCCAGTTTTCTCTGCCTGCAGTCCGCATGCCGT…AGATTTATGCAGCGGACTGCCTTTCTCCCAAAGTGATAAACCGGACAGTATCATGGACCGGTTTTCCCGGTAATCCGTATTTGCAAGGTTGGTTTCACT; site = the 11-nt target
parameter_measured: recombinant barcode read abundance (log10)
Respond with the number and no other words.

# example entries with known answers
                           ordered_residues  observed
0  AGGCGTCCTTGGGTTCTAACCTGTTGCCC (site AGGCGTCCTGG)      1.78
1  GAAGACGCTTGGGTTCTAACCTGTTGCCT (site GAAGTCGCTAG)     0.126
2  TACCGCTCTTGGGTTCTAACCTGTTGCTT (site TACCGCTCTAA)      1.01

Form field: reported recombinant barcode read abundance (log10) of GCTCAGGCTTGGGTTCTAACCTGTTGCCT (site GCTCAGCCTAG) 0.114

Could you tell me which recombinant barcode read abundance (log10) is on file for AGCAGAGCTTGGGTTCTAACCTGTTGCAG (site AGCAGAGCTCT) ? 2.24

State the recorded recombinant barcode read abundance (log10) for this entry: TTAGCGTCTTGGGTTCTAACCTGTTGCCT (site TTAGCATCTAG) 1.47
